# Experimental Target: T1, human EphA4 (binding to human Ephrin A5) (Homo sapiens, UniProt P54764)
# T1 construct: made in house; not restated for the human SEAP-His protein
# T1 sequence (P54764 20-547): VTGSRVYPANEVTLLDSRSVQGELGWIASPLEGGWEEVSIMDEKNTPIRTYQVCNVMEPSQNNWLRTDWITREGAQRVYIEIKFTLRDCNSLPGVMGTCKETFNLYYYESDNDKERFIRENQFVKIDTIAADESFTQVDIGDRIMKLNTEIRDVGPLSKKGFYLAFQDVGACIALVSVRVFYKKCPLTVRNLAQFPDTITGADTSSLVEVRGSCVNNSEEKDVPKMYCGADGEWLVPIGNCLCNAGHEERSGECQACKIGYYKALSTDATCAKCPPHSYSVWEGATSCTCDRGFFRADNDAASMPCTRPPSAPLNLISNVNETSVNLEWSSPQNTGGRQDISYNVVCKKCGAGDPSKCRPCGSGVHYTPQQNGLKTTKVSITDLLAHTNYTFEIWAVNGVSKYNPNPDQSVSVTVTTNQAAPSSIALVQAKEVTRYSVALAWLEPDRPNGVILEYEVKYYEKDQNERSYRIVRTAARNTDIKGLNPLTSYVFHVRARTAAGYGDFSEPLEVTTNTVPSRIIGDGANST
# Test Summary: Human EphA4-human ligand binding inhibition ELISA of humanized antibodies (biotinylated Ephrin A5-Fc)
# Experimental Setup: biotinylated human Ephrin A5-Fc 0.7 nM
pIC50: −log10 of the molar value.
Readout: pIC50

>  <Molecule>
95 (antibody, V domains shown, constant regions without entry; synthetic humanized antibody light chain variable region sequence; synthetic humanized antibody heavy chain variable region sequence) VL: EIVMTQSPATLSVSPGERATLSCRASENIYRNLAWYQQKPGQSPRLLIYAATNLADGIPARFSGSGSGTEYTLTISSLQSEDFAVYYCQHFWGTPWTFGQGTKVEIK VH: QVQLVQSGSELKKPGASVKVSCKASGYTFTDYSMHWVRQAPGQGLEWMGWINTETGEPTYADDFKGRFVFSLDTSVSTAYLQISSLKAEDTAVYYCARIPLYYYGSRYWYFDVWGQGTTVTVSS

>  <Assay Value>
8.51

$$$$
